tested on: OVCAR-5; assay: NCI tumour cell line growth inhibition, 48 h
Calls of active or inactive are those of the source. No stated cut-off is given here; in the data, active = GI50 up to about 1.1 µM and inactive = higher.
Choose the fitting class; nothing outside true (1) = active, false (0) = inactive is accepted.

COMPOUND: CCOP(=O)(OCC)OC1C=CC2CCC1C2 (centres undefined)
CLASS_LABEL: false (0)
--
COMPOUND: CC(C)(C)c1cc2nc(c1)C(C(F)(F)F)(C(F)(F)F)OB(Br)OC2(C(F)(F)F)C(F)(F)F
CLASS_LABEL: true (1)
--
COMPOUND: Cc1cc(NS(=O)(=O)c2ccc(NC(=O)c3cccc4c(Nc5ccc(S(=O)(=O)Nc6cc(C)on6)cc5)c5ccccc5nc34)cc2)no1
CLASS_LABEL: false (0)

[in] // return assay outcome for `Oc1c(Cl)c(Cl)c(O)c(CCNc2ccc3ncccc3c2)c1Cl`
[out] false (0)

[in] # fetch the recorded call for O=C(c1c(O)cc(O)cc1O)C1Cc2ccccc21 (centres undefined) here
[out] false (0)

[in] Look up the recorded call for `Fc1ccc(/N=C/C=C/Nc2ccc(F)cc2)cc1` in this test.
[out] false (0)

[in] Check the results log: what was the call for `Cc1cccc(/N=N/c2c(C)nn(C(=O)CC(=O)Nc3ccc(Cl)cc3)c2C)c1` ?
[out] false (0)

[in] Given CC1=C(C(=O)OCCc2ccc([N+](=O)[O-])cc2)C(c2ccccc2C(F)(F)F)C(C(=O)OC(C)C)=C(C)N1 (centres undefined) , state the outcome it received in this test.
[out] false (0)

[in] Record request — test call for `O=C1/C(=C/c2ccccc2[N+](=O)[O-])N=C(c2ccccc2)N1c1nc2ccccc2s1`
[out] false (0)

----------
tested on: UACC-257; experiment: NCI tumour cell line growth inhibition, 48 h
The source made the active and inactive calls. No stated cut-off is given here; in the data, active = GI50 up to about 1.1 µM and inactive = higher.
EXPERIMENTAL_ENDPOINT: GI50

// below: answered compounds
COMPOUND: C/C(=C\C(=O)O)C(=O)N(C)c1ccccc1I
GI50: > 100 µM (inactive)
//
COMPOUND: O=C(NN1C(=O)CS(=O)(=O)C1c1ccc(C(F)(F)F)cc1)c1ccncc1 (stereo unspecified)
GI50: > 100 µM (inactive)
//
COMPOUND: CN1CCN(Cn2nc(COc3ccc(Cl)cc3)n(/N=C/c3ccc(-c4ccc(Cl)cc4Cl)o3)c2=S)CC1
GI50: 17.6 µM (inactive)

[in] Note down GI50 recorded for `Oc1ccc(-c2c3ccccc3c(-c3ccc(O)cc3)c3ccccc23)cc1`
[out] > 100 µM (inactive)

[in] Look up GI50 of `Clc1ccc(NCc2nnc(CCCCCCCCc3nnc(CNc4ccc(Cl)cc4)o3)o2)cc1` and report it.
[out] > 100 µM (inactive)

[in] Tell me GI50 reported for COc1ccccc1/C=C1\CCC(CCN2CCOCC2)C1=O (stereo unspecified)
[out] > 100 µM (inactive)

----------
GI50 values for the compounds below.
system: UO-31; experiment: NCI tumour cell line growth inhibition, 48 h
Active and inactive are the calls of the source. No stated cut-off is given here; in the data, active = GI50 up to about 1.1 µM and inactive = higher.

Look over these answered cases.
COMPOUND: O=[N+]([O-])c1ccc(-c2ccc(C3=Nn4c(nnc4-c4ccc(Cl)cc4)SC3)o2)cc1
GI50: > 100 µM (inactive)

COMPOUND: O=C1C=CC(=CC=C2C=CN(CCCCCCCCCCC(=O)NCCCCCCCCCCCC(=O)O)C=C2)C=C1
GI50: > 100 µM (inactive)

COMPOUND: O=C(/C=C/c1ccsc1)c1ccsc1
GI50: 15.4 µM (inactive)

[in] Retrieve GI50 measured for CCOP12(OCC)NC(=O)OC1(C(F)(F)F)c1ccccc1O2 (stereo not given) and print it.
[out] > 100 µM (inactive)

[in] Recall and state the measured GI50 for CC(SC(=O)Nc1ccc(/N=N/c2ccccc2)cc1)C(=O)O (stereo not given) .
[out] 68.7 µM (inactive)

----------
test system: SK-MEL-2; experiment: NCI tumour cell line growth inhibition, 48 h
The source made the active and inactive calls. Cut-off read from the data, not from the text of the source: active = GI50 up to about 1.1 µM and inactive = higher.
Respond using exactly one of the listed classes: y (active), n (inactive)

Below are worked cases with known answers.
MOLECULE: CC1(C)[C@@H]2CC[C@@]1(C)C1(S[S+]1[O-])C21Cc2ccccc2C1 (stereo partly specified)
TARGET: SK-MEL-2
CLASS_LABEL: n
--
MOLECULE: Cc1c2cc[n+](C)cc2c(C)c2c1[nH]c1ccc(OCC(F)(F)F)cc12
TARGET: SK-MEL-2
CLASS_LABEL: n
--
MOLECULE: CNC1NC(=O)c2ccccc2N1Cc1ccc(F)cc1 (stereo unspecified)
TARGET: SK-MEL-2
CLASS_LABEL: n
--
MOLECULE: COc1ccc(C2CCC(Cl)(OC)CC2C=O)cc1 (stereo unspecified)
TARGET: SK-MEL-2
CLASS_LABEL: n
--
MOLECULE: CCOC(=O)C(=O)/C(=C\NC(=S)Nc1ccccc1Cl)C(=O)OCC
TARGET: SK-MEL-2
CLASS_LABEL: n

Would you kindly look at the next entry?
[in] State the result this test recorded for O=C1[C@H](c2ccccc2)C2c3ccccc3CCN12 (stereo partly specified) .
[out] n

----------
// GI50 lookup, one value per entry
test system: SN12C; test: NCI tumour cell line growth inhibition, 48 h
Activity calls are given as the source filed them. Cut-off read from the data, not from the text of the source: active = GI50 up to about 1.1 µM and inactive = higher.

Consider the reported GI50 for these compounds:
COMPOUND: Cc1cc2c(C(C)C)c(O)c(O)c(/C=N/c3cc(C(F)(F)F)ccc3Cl)c2c(O)c1-c1c(C)cc2c(C(C)C)c(O)c(O)c(/C=N/c3cc(C(F)(F)F)ccc3Cl)c2c1O
GI50: 49.1 µM (inactive)
//
COMPOUND: CC(C)CN1CC(C)C(=O)NC1=O (stereo unspecified)
GI50: > 100 µM (inactive)
//
COMPOUND: COc1ccc(SCc2cc(OC)ccc2OC)cc1
GI50: 55.3 µM (inactive)

[in] Return value of GI50 for input `CCCCOC(=O)CNC(=O)OCCCCC#CC#CCCCCOC(=O)NCC(=O)OCCCC` , no commentary.
[out] > 100 µM (inactive)

----------
Each record here notes measured GI50.
tested on: RXF 393; experiment: NCI tumour cell line growth inhibition, 48 h
Activity calls are given as the source filed them. No stated cut-off is given here; in the data, active = GI50 up to about 1.1 µM and inactive = higher.

SMILES_TEXT: C=C1CN(Cc2ccccc2)[C@@H]2CCCCC[C@H](C#N)[C@H]12
OBS_VALUE: > 60.8 µM (inactive)

[in] Give reported GI50 value for `C[N+](C)(C)CCC(=O)N1C/C(=C\c2ccccc2)C(=O)/C(=C/c2ccccc2)C1`
[out] 11.8 µM (inactive)

[in] In one line, give reported GI50 of the entry `COC1(OC)CCc2c(sc3ncnc(Nc4cccc(Br)c4)c23)C1` .
[out] 22.9 µM (inactive)

[in] Determine its reported GI50: `O=[N+]([O-])c1ccc2nc(O)n[n+]([O-])c2c1`
[out] > 100 µM (inactive)

[in] // fetch GI50 given entry `CCN(Cc1cc(Cl)cc(C)c1O)Cc1c(O)ccc2ccccc12`
[out] 16.4 µM (inactive)

----------
test system: XF498; test: NCI tumour cell line growth inhibition, 48 h
The source made the active and inactive calls. Cut-off read from the data, not from the text of the source: active = GI50 up to about 1.1 µM and inactive = higher.
EXPERIMENTAL_ENDPOINT: GI50

SMILES_TEXT: Nc1ncnc2sc(Nc3ccccc3)nc12
TARGET: XF498
GI50: > 100 µM (inactive)
--
SMILES_TEXT: Oc1ccc(-c2c3ccccc3c(-c3ccc(O)cc3)c3ccccc23)cc1
TARGET: XF498
GI50: > 100 µM (inactive)

// moving on: another record for GI50
[in] Consider the molecule `N#COc1ccc(Oc2ccccc2)cc1` and give its recorded GI50.
[out] 97.3 µM (inactive)

----------
system: MCF7; assay: NCI tumour cell line growth inhibition, 48 h
Calls of active or inactive are those of the source. Cut-off read from the data, not from the text of the source: active = GI50 up to about 1.1 µM and inactive = higher.
Outcomes you can answer with include only these: active, inactive

[in] Query: recorded result category for CC1=NN(c2ccccc2Cl)C2(C1)C(Cl)C(=O)N2c1nc2ccccc2s1 (stereo not given) in this test
[out] inactive

[in] Test call, this compound: `COc1ccc(/C=N/NC(=O)c2ccccc2Nc2ccccc2C(=O)N/N=C/c2ccc(OC)c(OC)c2)cc1OC`
[out] inactive

[in] Hi team, can someone confirm the assay call for `COc1c2c(c3c(c1CCC(=O)O)OC(C)(C)C=C3)OC(C)(C)C=C2` ?
[out] inactive

[in] Assay result, entry `O=c1[nH][nH]c(=O)c2c1ccc1oc3ccccc3c12` — outcome?
[out] inactive

[in] In this assay, the call recorded for `CC(C)CCn1nc(N)c2nc3ccccc3nc21` was what?
[out] inactive

----------
tested on: SNB-78; assay: NCI tumour cell line growth inhibition, 48 h
Activity calls are given as the source filed them. Rule as the data show it: active = GI50 up to about 1.1 µM and inactive = higher.
Please reply with one of these outcomes: active, inactive

Example results:
COMPOUND: CN1CCS(=O)(=O)NC(Cc2ccccc2)C(=O)N2CCCC2C1=O (configuration not stated)
CLASS_LABEL: inactive

COMPOUND: O=C1[C@@H]2C(c3ccc(Cl)cc3Cl)=NO[C@@H]2C(=O)N1c1ccc(Cc2ccc(N3C(=O)[C@H]4C(c5ccc(Cl)cc5Cl)=NO[C@H]4C3=O)cc2)cc1
CLASS_LABEL: inactive

COMPOUND: CC(C)(C)OC1=C(OC(C)(C)C)C(O)(c2ccccc2)C1=O (configuration not stated)
CLASS_LABEL: inactive

[in] Assay result, entry CCOC(=O)CSc1nnc(C(Sc2nc(-c3ccccc3)c(-c3ccccc3)[nH]2)C(C)C)n1-c1ccccc1 (configuration not stated) — outcome?
[out] inactive

[in] Hi, do you know how `CC1=C(NC(=O)/C(=N/NC(=S)NN)C2C(=O)CC(C)(C)CC2=O)C(=O)c2ccccc2C1=O` came out in this test?
[out] inactive

[in] Call for entry `CC1(C)CCc2ccc(OCCC(=O)O)cc2O1` :
[out] inactive

[in] # fetch the recorded call for `CN(CCO)c1nc(N)cc(=O)[nH]1` here
[out] inactive

[in] Tell me the assay call for N#CC1CC2(CCN1C(=O)c1ccccc1)OCCO2 (configuration not stated) please.
[out] inactive
